Values were extracted from the supplement of paper PMC10567573.

Listed variants paired with reported protein stability index
B1: ZNF511 (parent)
chain: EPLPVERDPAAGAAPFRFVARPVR

# Variants of: B1
# Assay: protein stability index of a GFP-peptide fusion (GPS, HEK-293T) (PSI 1-6); higher = more stable;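 further: lentivirally expressed fusions sorted by FACS into six bins by GFP to DsRed ratio, PSI derived from sequencing read proportions per bin multiplied by bin number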
# Conditions: c terminus: a fixed tail appended
Measurement Name: protein stability index

Changes: E6V
Measured Value: 3.22
--
Changes: A20Y
Measured Value: 4.17
--
Changes: V23T
Measured Value: 2.17
--
Changes: P9E
Measured Value: 2.2
--
Changes: D8T
Measured Value: 2.99
--
Changes: R21M
Measured Value: 1.95
--
Changes: V19R
Measured Value: 4.22
--
Changes: F18Q
Measured Value: 4.79
--
Changes: D8G
Measured Value: 1.91
--
Changes: R21C
Measured Value: 1.7
--
Changes: P2C
Measured Value: 2.08
--
Changes: R24F
Measured Value: 2.04
--
Changes: P22M
Measured Value: 2.48
--
Changes: V23A
Measured Value: 2.58
--
Changes: P9K
Measured Value: 1.46
--
Changes: A13F
Measured Value: 1.94
--
Changes: D8E
Measured Value: 2.13
--
Changes: V23R
Measured Value: 2.8
--
Changes: A14D
Measured Value: 4.71
--
Changes: R21E
Measured Value: 2.35
--
Changes: P4I
Measured Value: 2.9
--
Changes: P15S
Measured Value: 4.09
